Cited source: paper PMC7819943

- assayed target: OsSMF1 (Oryza sativa, UniProt Q6ZLB0 1-436)
- Sequence: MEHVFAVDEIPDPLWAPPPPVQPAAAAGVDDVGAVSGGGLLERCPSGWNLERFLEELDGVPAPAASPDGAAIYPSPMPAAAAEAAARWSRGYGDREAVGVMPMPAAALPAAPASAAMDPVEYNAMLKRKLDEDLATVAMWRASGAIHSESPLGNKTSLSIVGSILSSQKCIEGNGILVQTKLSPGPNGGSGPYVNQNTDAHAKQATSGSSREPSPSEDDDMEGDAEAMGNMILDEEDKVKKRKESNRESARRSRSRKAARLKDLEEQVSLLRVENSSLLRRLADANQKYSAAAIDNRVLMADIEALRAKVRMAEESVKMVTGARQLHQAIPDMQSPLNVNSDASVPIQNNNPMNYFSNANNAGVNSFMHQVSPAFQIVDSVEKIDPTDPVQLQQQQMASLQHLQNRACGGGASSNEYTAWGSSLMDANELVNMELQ
- method: protein-binding microarray (RPBM); PBS, 2% BSA, 51.3 ng/ul salmon testes DNA, 50 uM zinc acetate, 200 nM TF, 25 C, 1 h; high values mean tight binding
- test settings: protein: recombinant; tags: N-terminal polyhistidine and DsRed monomer fusion (pET32a); chain copies: 2; label: CyDye5-dUTP incorporated in the synthesized complementary strand; 3' TTTTT single-stranded linker to array surface; dsDNA, one strand shown
Over roughly 39,000 sequences, “fluorescence intensity (a.u.)” has its median near 4,300; the highest 2% begin near 39,000. The entries come from a sample that favours the highest values as a whole.
binding signal values for the sequences below.
measured parameter: binding signal

seq	measured parameter	measurement
CTCATAGTCATAGTTACTGATTTGTTTGCTCATAGTCATACGGAGTCACCTAGTGCAG	binding signal	22700 fluorescence intensity (a.u.)
AGTAGAGAGATCTTGACAAAGTCATCGGTGATGAAGTCGACGGAGTCACCTAGTGCAG	binding signal	3570 fluorescence intensity (a.u.)
ACACGTGGGTCCACGTAGGCGACACGTCAATGCCACGTCACGGAGTCACCTAGTGCAG	binding signal	55900 fluorescence intensity (a.u.)
GAGTTAGCAGTGTTGACCACGGTCAAGGTGCCACGTCATCCGGAGTCACCTAGTGCAG	binding signal	43000 fluorescence intensity (a.u.)
TTCATTCCCAAATGCCACCCGGGCCCACATGTCAGCCTCACGGAGTCACCTAGTGCAG	binding signal	4670 fluorescence intensity (a.u.)
CAGTGACTCCTCTCCTACGTAGGCGCCACGTCAGCAAAACCGGAGTCACCTAGTGCAG	binding signal	20900 fluorescence intensity (a.u.)
TGTTTATTGGCTTTGTCATATGATAAATGAATTAATTGTTCGGAGTCACCTAGTGCAG	binding signal	30500 fluorescence intensity (a.u.)
GTTTTGGTATTGGCTATAAAATGACATGGATGTTATTGGACGGAGTCACCTAGTGCAG	binding signal	4760 fluorescence intensity (a.u.)
TTTGATGCTGATTATAGGAAAATGTAAATGTTTCTATATACGGAGTCACCTAGTGCAG	binding signal	39500 fluorescence intensity (a.u.)
TGCTATGCATACGACTCAGCTGTCCGACTCATGTATGAATCGGAGTCACCTAGTGCAG	binding signal	3720 fluorescence intensity (a.u.)
TATATGAAATTATTATTTGATTTCTTGATCATATAATGTACGGAGTCACCTAGTGCAG	binding signal	3440 fluorescence intensity (a.u.)
AAGTTCACAGTGCTGACCACGGTCAAGGTGCCACGTCATCCGGAGTCACCTAGTGCAG	binding signal	35200 fluorescence intensity (a.u.)
TATGACATCGGCTCAAAGATAAATGATATGTCATCGGCATCGGAGTCACCTAGTGCAG	binding signal	3540 fluorescence intensity (a.u.)
TATTACCACGTAGGCGCCACGTGGCGCCACGTCAGCAAAACGGAGTCACCTAGTGCAG	binding signal	42100 fluorescence intensity (a.u.)
GACATGTAGGACCCACGTGAGTCAATGACACGTGGGTCAGCGGAGTCACCTAGTGCAG	binding signal	23800 fluorescence intensity (a.u.)
AGGGCTATCTGCTATCTCATCTTGTATGACAAAGATTGATCGGAGTCACCTAGTGCAG	binding signal	65500 fluorescence intensity (a.u.)
GGCTGCGGCGCTGTCCCTCCGTCTGCGTGATCCGACAACCCGGAGTCACCTAGTGCAG	binding signal	3800 fluorescence intensity (a.u.)
GTTACATACTGTGATAGTTTGTTTAATGCTAAATCTAGTACGGAGTCACCTAGTGCAG	binding signal	43300 fluorescence intensity (a.u.)
ACTATTGTTTGGTAGTAAAATTGATAATTAAATGACTATACGGAGTCACCTAGTGCAG	binding signal	40900 fluorescence intensity (a.u.)

----------
- assayed target: OsSMF1 (Oryza sativa, UniProt Q6ZLB0 1-436)
- Sequence: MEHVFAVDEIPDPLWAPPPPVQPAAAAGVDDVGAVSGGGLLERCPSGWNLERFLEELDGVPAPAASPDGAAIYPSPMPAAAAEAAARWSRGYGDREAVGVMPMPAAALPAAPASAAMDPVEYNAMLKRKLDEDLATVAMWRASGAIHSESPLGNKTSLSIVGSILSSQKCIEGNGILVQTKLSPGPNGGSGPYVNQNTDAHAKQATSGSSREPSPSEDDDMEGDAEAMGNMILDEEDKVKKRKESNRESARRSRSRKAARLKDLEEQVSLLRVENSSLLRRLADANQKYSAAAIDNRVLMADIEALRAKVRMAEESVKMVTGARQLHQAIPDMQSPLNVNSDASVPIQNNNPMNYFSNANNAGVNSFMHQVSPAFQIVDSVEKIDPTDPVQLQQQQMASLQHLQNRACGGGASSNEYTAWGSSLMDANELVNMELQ
- method: protein-binding microarray (RPBM); PBS, 2% BSA, 51.3 ng/ul salmon testes DNA, 50 uM zinc acetate, 200 nM TF, 25 C, 1 h; high values mean tight binding
- test settings: protein: recombinant; tags: N-terminal polyhistidine and DsRed monomer fusion (pET32a); chain copies: 2; label: CyDye5-dUTP incorporated in the synthesized complementary strand; 3' TTTTT single-stranded linker to array surface; dsDNA, one strand shown
Over roughly 39,000 sequences, “fluorescence intensity (a.u.)” has its median near 4,300; the highest 2% begin near 39,000. The list comes from a sample in which the highest values are over-represented; it also holds close analogues and randomly drawn sequences.
binding signal values for the sequences below.

seq	assayed target	binding signal
TGTGTACGTCACATCCTAATTAACATCAACTTGATAAAATCGGAGTCACCTAGTGCAG	OsSMF1 (Oryza sativa, UniProt Q6ZLB0 1-436)	7900 fluorescence intensity (a.u.)
ATTAAGCCCTCAATCGGCACAGGCGAGGAGTTCTCATCACCGGAGTCACCTAGTGCAG	OsSMF1 (Oryza sativa, UniProt Q6ZLB0 1-436)	12000 fluorescence intensity (a.u.)
ACCGACGCGGACAGCCACAGTCCAGTCACACACCACACCACGGAGTCACCTAGTGCAG	OsSMF1 (Oryza sativa, UniProt Q6ZLB0 1-436)	5320 fluorescence intensity (a.u.)
CTCCGATACGTATCCCGTACGTATCGCTATTTACTTCGATCGGAGTCACCTAGTGCAG	OsSMF1 (Oryza sativa, UniProt Q6ZLB0 1-436)	4930 fluorescence intensity (a.u.)
GTCCCTCCGCCGGCATCAGCTCAACGCCGCCGTCCTCCTCCGGAGTCACCTAGTGCAG	OsSMF1 (Oryza sativa, UniProt Q6ZLB0 1-436)	3370 fluorescence intensity (a.u.)
GAGATGGGAGGAGAGCTAGCTAGCCGCCGAGGCTGAGCTCCGGAGTCACCTAGTGCAG	OsSMF1 (Oryza sativa, UniProt Q6ZLB0 1-436)	40600 fluorescence intensity (a.u.)
CGCCATGGGCGACATCGACATCTACAGCCTCTACACTCCGCGGAGTCACCTAGTGCAG	OsSMF1 (Oryza sativa, UniProt Q6ZLB0 1-436)	44200 fluorescence intensity (a.u.)
ACCCGCGCGCCGGCCGCGTCATCGACGACATCGTGCGTACCGGAGTCACCTAGTGCAG	OsSMF1 (Oryza sativa, UniProt Q6ZLB0 1-436)	3920 fluorescence intensity (a.u.)
GTGTGCCGCCGCCGCTGACTCCGGAGGGAGAGGACGAGCTCGGAGTCACCTAGTGCAG	OsSMF1 (Oryza sativa, UniProt Q6ZLB0 1-436)	3320 fluorescence intensity (a.u.)
CCAACCATGCTTCGCAGTTGTCACAGAACGTCAACAGTGCCGGAGTCACCTAGTGCAG	OsSMF1 (Oryza sativa, UniProt Q6ZLB0 1-436)	3460 fluorescence intensity (a.u.)
TCAGTAGTTGCTTCTCGCAACGTCACAGGCTTTAGATGCACGGAGTCACCTAGTGCAG	OsSMF1 (Oryza sativa, UniProt Q6ZLB0 1-436)	44200 fluorescence intensity (a.u.)
GCCGCTACAAACCGTGGGCAAGACGTGTCGCCATGGGAGCCGGAGTCACCTAGTGCAG	OsSMF1 (Oryza sativa, UniProt Q6ZLB0 1-436)	4560 fluorescence intensity (a.u.)
CGTCCGCAGCACGCCACGGTAGCGCGACACCCGGCCTTCCCGGAGTCACCTAGTGCAG	OsSMF1 (Oryza sativa, UniProt Q6ZLB0 1-436)	4600 fluorescence intensity (a.u.)
TGTTAGTTTTGCATGCACAGAGATGATTAGGCAGTAGCAACGGAGTCACCTAGTGCAG	OsSMF1 (Oryza sativa, UniProt Q6ZLB0 1-436)	3940 fluorescence intensity (a.u.)
ACCCATATAATTAAGGTGCCAATGCTGCTAATACTCTCTCCGGAGTCACCTAGTGCAG	OsSMF1 (Oryza sativa, UniProt Q6ZLB0 1-436)	46100 fluorescence intensity (a.u.)
ACGCAGTCACGCAGACCACAGGGCGATGCAGCGGACCGACCGGAGTCACCTAGTGCAG	OsSMF1 (Oryza sativa, UniProt Q6ZLB0 1-436)	40900 fluorescence intensity (a.u.)
CCTCCATCTATGTCCTGCTGTCCAACATCTACGCGGATGCCGGAGTCACCTAGTGCAG	OsSMF1 (Oryza sativa, UniProt Q6ZLB0 1-436)	3820 fluorescence intensity (a.u.)
TAGCTCGTACTCCTACATCGTAGCCACCGCGCCTCCCATGCGGAGTCACCTAGTGCAG	OsSMF1 (Oryza sativa, UniProt Q6ZLB0 1-436)	3640 fluorescence intensity (a.u.)
ATCTCCATCTGGCGAGCAGAGGCCGGGGAGGGAGGGGCGCCGGAGTCACCTAGTGCAG	OsSMF1 (Oryza sativa, UniProt Q6ZLB0 1-436)	3870 fluorescence intensity (a.u.)
